property: flash point (°C)

Reported flash point for `C[Si](C)(C)O[Si](C)(C)O[Si](C)(C)C` : what is it?
30.00

Can you handle `C[SiH](C)Cl` next?
-28.00

Can you handle `C#CCO[Si](C)(C)C` next?
27.00

Can you handle C[Si](C)(C)C1C=CCC1 (configuration not stated) next?
26.00

Can you handle `CO[Si](OC)(c1ccccc1)c1ccccc1` next?
121.00

(P) CO[Si](C)(OC)c1ccccc1
(Q) C[SiH](C)O[SiH](C)C
Which has the smaller recorded flash point, P or Q ? Return value: the label identifying the chosen record.
Q

====

property: flash point (°C)

Consider the worked cases shown below.
Reported flash point for `Cc1ccc(O)c(C(C)(C)C)c1` : what is it?
100

Can you handle CCNC(C)=O [N-ethylacetamide] next?
110

(1) SCCCCl
(2) C=CC1CCCCC1
Please tell me which of the two, 1 or 2 , has the higher reported flash point value. Return value: the label identifying the chosen record.
1
(1: 43 °C, 2: 22 °C)

====

property: flash point (°C)

Reported flash point for CCCCCCCCCCOC(=O)c1ccccc1C(=O)OCCCCCCCCCC [didecyl benzene-1,2-dicarboxylate] : what is it?
232.00

Can you handle `CCCCCCCCCCCCc1ccccc1` next?
135.00

Can you handle `CCCCCCCCCCCCC` next?
79.00

Can you handle CCOC(=O)CC(=O)OCC [diethyl propanedioate] next?
93.00

Can you handle `C=C(C)CCl` next?
-13.00

(I) N#Cc1ccccc1
(II) C=CCCCCCCC
Please tell me which of the two, I or II , has the higher reported flash point value. Return value: the label identifying the chosen record.
I

====

property: flash point (°C)

Consider the worked cases shown below.
Reported flash point for CCC(C)N (stereo unspecified) [butan-2-amine] : what is it?
-9.00

Can you handle CC(C)CC=O [3-methylbutanal] next?
13.00

Can you handle CCCCCCOC(C)=O [hexyl acetate] next?
37.00

Can you handle CC(=O)Nc1ccc(C(=O)CCl)cc1 [N-[4-(2-chloroacetyl)phenyl]acetamide] next?
110.00

Can you handle CC(=O)OCCO [2-hydroxyethyl acetate] next?
102.00

(A) c1ccc2c(c1)[nH]c1ccccc12 [9H-carbazole]
(B) C=C(C)c1ccccc1 [prop-1-en-2-ylbenzene]
Which has the smaller recorded flash point, A or B ? Return value: the label identifying the chosen record.
B
(B: 54.00 °C, A: 220.00 °C)

(P) Cc1cn(/C=C/C=O)c(=O)[nH]c1=O [(E)-3-(5-methyl-2,4-dioxopyrimidin-1-yl)prop-2-enal]
(Q) CC(C)(C)CC(C)(C)S [2,4,4-trimethylpentane-2-thiol]
(R) Cc1ccccc1Br [1-bromo-2-methylbenzene]
With regard to flash point, arrange the entries in ascending order, please. # list labels per requested ordering
Q, R, P
(Q: 46.00 °C, R: 79.00 °C, P: 207.00 °C)

====

property: flash point (°C)

Reported flash point for C[C@H]1CC[C@H](C)CC1 [trans-1,4-dimethylcyclohexane] : what is it?
6

Can you handle CC/C=C/CCCC [trans-3-octene] next?
9

Can you handle `CCC(CC)CC` next?
-12

(1) CC/C=C\CCCC [cis-3-octene]
(2) C=C(CC)CCC
Which has the smaller recorded flash point, 1 or 2 ? Return value: the label identifying the chosen record.
2
(2: -10 °C, 1: 17 °C)

(a) CCCCC(C)CCC (configuration not stated)
(b) CC#CC(C)(C)C
(c) CCCCCCC(C)CC (configuration not stated)
(d) C1=CCCC=C1
(e) CC(C)C(C)(C)C
List these items ordered by flash point, big to small. # list labels per requested ordering
c, a, b, d, e
(c: 41 °C, a: 22 °C, b: -10 °C, d: -16 °C, e: -24 °C)
